Property: PD-L1 MFI at 33.3 nM; scope: individual molecules
biological target: huPD-L1 (Homo sapiens, UniProt Q9NZQ7); assay: Flow binding to CHO cells stably expressing PD-L1; design: huCTLA4 and huPD-L1, full-length mammalian surface expression constructs were generated; expressed in transfected cells; host or cells: CHO cells, lentiviral transduction, sorted to >98% purity; details: Table E19; CHO cells stably expressing PD-L1; 33.3 nM
Sequence (Q9NZQ7 19-290): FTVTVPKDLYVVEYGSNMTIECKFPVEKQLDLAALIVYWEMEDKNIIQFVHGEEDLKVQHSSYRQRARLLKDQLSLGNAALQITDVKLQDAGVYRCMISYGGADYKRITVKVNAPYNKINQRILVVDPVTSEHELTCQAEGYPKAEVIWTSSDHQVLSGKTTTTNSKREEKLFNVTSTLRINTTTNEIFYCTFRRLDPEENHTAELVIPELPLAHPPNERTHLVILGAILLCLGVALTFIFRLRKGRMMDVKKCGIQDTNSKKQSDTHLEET
// keep it numeric: no unit symbol after the value

Worked examples follow.
- E35D/N48K/V68M/K89N (protein) VIHVTKEVKEVATLSCGHNVSVEELAQTRIYWQKDKKMVLTMMSGDMKIWPEYKNRTIFDITNNLSIMILALRPSDEGTYECVVLKYENDAFKREHLAEVTLSVKAD: 17425
- E35D/M47L: variant CD80 IgV-Fc, IgV SEQ ID NO:208 (protein) VIHVTKEVKEVATLSCGHNVSVEELAQTRIYWQKDKKMVLTMMSGDLNIWPEYKNRTIFDITNNLSIVILALRPSDEGTYECVVLKYEKDAFKREHLAEVTLSVKAD: 7529
- E35D/D46V/M47L (protein) VIHVTKEVKEVATLSCGHNVSVEELAQTRIYWQKDKKMVLTMMSGVLNIWPEYKNRTIFDITNNLSIVILALRPSDEGTYECVVLKYEKDAFKREHLAEVTLSVKAD: 7988

input: May I ask what PD-L1 MFI at 33.3 nM has been recorded for N48K (protein) VIHVTKEVKEVATLSCGHNVSVEELAQTRIYWQKEKKMVLTMMSGDMKIWPEYKNRTIFDITNNLSIVILALRPSDEGTYECVVLKYEKDAFKREHLAEVTLSVKAD ?
output: 481

input: May I ask what PD-L1 MFI at 33.3 nM has been recorded for E35D/D46V (protein) VIHVTKEVKEVATLSCGHNVSVEELAQTRIYWQKDKKMVLTMMSGVMNIWPEYKNRTIFDITNNLSIVILALRPSDEGTYECVVLKYEKDAFKREHLAEVTLSVKAD ?
output: 3971

input: May I ask what PD-L1 MFI at 33.3 nM has been recorded for E35D/D46V/M47L/V68M/L85Q (protein) VIHVTKEVKEVATLSCGHNVSVEELAQTRIYWQKDKKMVLTMMSGVLNIWPEYKNRTIFDITNNLSIMILALRPSDEGTYECVVQKYEKDAFKREHLAEVTLSVKAD ?
output: 28418

input: May I ask what PD-L1 MFI at 33.3 nM has been recorded for M47L/V68M/L85Q (protein) VIHVTKEVKEVATLSCGHNVSVEELAQTRIYWQKEKKMVLTMMSGDLNIWPEYKNRTIFDITNNLSIMILALRPSDEGTYECVVQKYEKDAFKREHLAEVTLSVKAD ?
output: 4039

input: May I ask what PD-L1 MFI at 33.3 nM has been recorded for E35D/D46V/M47L/L85Q (protein) VIHVTKEVKEVATLSCGHNVSVEELAQTRIYWQKDKKMVLTMMSGVLNIWPEYKNRTIFDITNNLSIVILALRPSDEGTYECVVQKYEKDAFKREHLAEVTLSVKAD ?
output: 7523
